Molecular target: T1, LHD101 chainB, split luciferase reporter construct
T1 construct: not shown: N-terminal Strep-tag and sfGFP; GS-linker and smBiT or lgBiT
T1 chain: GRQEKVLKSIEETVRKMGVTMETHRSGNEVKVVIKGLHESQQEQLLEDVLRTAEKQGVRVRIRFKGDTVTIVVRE
Assay: split luciferase equilibrium binding in lysate
pKd: −log10 of the molar value.

Binder	pKd
LHD101 chainA, split luciferase reporter construct (designed binder, not shown: N-terminal Strep-tag and sfGFP; GS-linker and smBiT or lgBiT) GRQEKVLKSIEETVRKMGVTMETHRSGNEVKVVIKGLHIKQQRQLYRDVRETSKKQGVETEIEVEGDTVTIVVRE	7.70
